assayed-target: (CUG)10 RNA (SEQ ID NO: 3)
protocol-text: SPR binding to immobilized biotinylated RNA
assay-context: Table 7, SPR, (CUG)10; read-out: KD
pKd: −log10 of the molar value.
Give 1 when the value for pKd is at least 7. Give 0 when it is less.

# compound, qualitative-label
data = [
    ("CCc1nc2cc3ccccc3cc2cc1C(=O)N1CCC[C@H]1C(=O)N[C@@H](C/C=C\\C[C@H](NC(=O)[C@@H]1CCCN1C(=O)c1cc2cc3ccccc3cc2nc1CC)C(=O)N[C@@H](CCCCN)C(=O)NCCCN)C(=O)N[C@@H](CCCCN)C(=O)NCCCN [Compound 4]", 1),
    ("CCc1nc2cc3ccccc3cc2cc1C(=O)N1CCC[C@H]1C(=O)N(C)[C@@H](C/C=C\\C[C@@H](C(=O)N(C)[C@@H](CCCCN)C(=O)NCCCN)N(C)C(=O)[C@@H]1CCCN1C(=O)c1cc2cc3ccccc3cc2nc1CC)C(=O)N(C)[C@@H](CCCCN)C(=O)NCCCN [22 (Z)]", 0),
]

----------
Tested on: CUG-CAG duplex ("Duplex") (SEQ ID NO: 6)
protocol-text: SPR binding to immobilized biotinylated RNA
assay-context: Duplex
measured-metric: Residence time (t1/2) for compound binding to RNA

# compound-smiles, reported-result
records = [
    ("CCc1nc2cc3ccccc3cc2cc1C(=O)N[C@@H](CCCCN)C(=O)N[C@@H](C/C=C/C[C@H](NC(=O)[C@H](CCCCN)NC(=O)c1cc2cc3ccccc3cc2nc1CC)C(=O)N1CCC[C@H]1C(=O)NCCCN)C(=O)N1CCC[C@H]1C(=O)NCCCN", "6.2097 min"),
    ("CCc1nc2cc3ccccc3cc2cc1C(=O)N1CCC[C@H]1C(=O)N[C@@H](C/C=C/C[C@H](NC(=O)[C@@H]1CCCN1C(=O)c1cc2cc3ccccc3cc2nc1CC)C(=O)N[C@@H](CCCCN)C(=O)NCCCN)C(=O)N[C@@H](CCCCN)C(=O)NCCCN", "3.0078 min"),
    ("CCc1nc2cc3ccccc3cc2cc1C(=O)N[C@@H](CCCCN)C(=O)N[C@@H](C/C=C\\C[C@H](NC(=O)[C@H](CCCCN)NC(=O)c1cc2cc3ccccc3cc2nc1CC)C(=O)N1CCC[C@H]1C(=O)NCCCN)C(=O)N1CCC[C@H]1C(=O)NCCCN", "4.262 min"),
    ("CCc1nc2cc3ccccc3cc2cc1C(=O)N1CCC[C@H]1C(=O)N[C@@H](C/C=C\\C[C@H](NC(=O)[C@@H]1CCCN1C(=O)c1cc2cc3ccccc3cc2nc1CC)C(=O)N[C@@H](CCCCN)C(=O)NCCCN)C(=O)N[C@@H](CCCCN)C(=O)NCCCN", "7.549 min"),
]

----------
Test system: (CCUG)10 RNA (SEQ ID NO: 4)
protocol-text: SPR binding to immobilized biotinylated RNA
assay-context: SPR, (CCUG)10

# compound-smiles, assayed-target, Off-rates (koff), s⁻¹
measured = [
    ("CCc1nc2cc3ccccc3cc2cc1C(=O)N[C@@H](CCCCN)C(=O)N[C@@H](C/C=C/C[C@H](NC(=O)[C@H](CCCCN)NC(=O)c1cc2cc3ccccc3cc2nc1CC)C(=O)N1CCC[C@H]1C(=O)NCCCN)C(=O)N1CCC[C@H]1C(=O)NCCCN", "(CCUG)10 RNA (SEQ ID NO: 4)", 0.00271),
    ("CCc1nc2cc3ccccc3cc2cc1C(=O)N[C@@H](CCCCN)C(=O)N[C@@H](C/C=C\\C[C@H](NC(=O)[C@H](CCCCN)NC(=O)c1cc2cc3ccccc3cc2nc1CC)C(=O)N1CCC[C@H]1C(=O)NCCCN)C(=O)N1CCC[C@H]1C(=O)NCCCN", "(CCUG)10 RNA (SEQ ID NO: 4)", 0.00453),
]

----------
Test system: (CAG)10 RNA (SEQ ID NO: 5)
protocol-text: SPR binding to immobilized biotinylated RNA
assay-context: SPR
measured-metric: Off-rates (koff) (s⁻¹)

# compound-smiles, assayed-target, measured-metric, reported-result
rows = [
    ("CCc1nc2cc3ccccc3cc2cc1C(=O)N1CCC[C@H]1C(=O)N[C@@H](C/C=C/C[C@H](NC(=O)[C@@H]1CCCN1C(=O)c1cc2cc3ccccc3cc2nc1CC)C(=O)N[C@@H](CCCCN)C(=O)NCCCN)C(=O)N[C@@H](CCCCN)C(=O)NCCCN", "(CAG)10 RNA (SEQ ID NO: 5)", "Off-rates (koff)", 0.00273),
    ("CCc1nc2cc3ccccc3cc2cc1C(=O)N[C@@H](CCCCN)C(=O)N[C@@H](C/C=C/C[C@H](NC(=O)[C@H](CCCCN)NC(=O)c1cc2cc3ccccc3cc2nc1CC)C(=O)N1CCC[C@H]1C(=O)NCCCN)C(=O)N1CCC[C@H]1C(=O)NCCCN", "(CAG)10 RNA (SEQ ID NO: 5)", "Off-rates (koff)", 0.00344),
]

----------
System: CUG-CAG duplex ("Duplex") (SEQ ID NO: 6)
protocol-text: SPR binding to immobilized biotinylated RNA
assay-context: SPR, Duplex
The reader will find reported On-rates (kon) values listed item by item below.

# compound-smiles, On-rates (kon) (M⁻¹ s⁻¹)
rows = [
    ("CCc1nc2cc3ccccc3cc2cc1C(=O)N1CCC[C@H]1C(=O)N[C@@H](C/C=C\\C[C@H](NC(=O)[C@@H]1CCCN1C(=O)c1cc2cc3ccccc3cc2nc1CC)C(=O)N[C@@H](CCCCN)C(=O)NCCCN)C(=O)N[C@@H](CCCCN)C(=O)NCCCN", 29500),
    ("CCc1nc2cc3ccccc3cc2cc1C(=O)N1CCC[C@H]1C(=O)N[C@@H](C/C=C/C[C@H](NC(=O)[C@@H]1CCCN1C(=O)c1cc2cc3ccccc3cc2nc1CC)C(=O)N[C@@H](CCCCN)C(=O)NCCCN)C(=O)N[C@@H](CCCCN)C(=O)NCCCN", 15000),
    ("CCc1nc2cc3ccccc3cc2cc1C(=O)N[C@@H](CCCCN)C(=O)N[C@@H](C/C=C/C[C@H](NC(=O)[C@H](CCCCN)NC(=O)c1cc2cc3ccccc3cc2nc1CC)C(=O)N1CCC[C@H]1C(=O)NCCCN)C(=O)N1CCC[C@H]1C(=O)NCCCN", 24300),
    ("CCc1nc2cc3ccccc3cc2cc1C(=O)N[C@@H](CCCCN)C(=O)N[C@@H](C/C=C\\C[C@H](NC(=O)[C@H](CCCCN)NC(=O)c1cc2cc3ccccc3cc2nc1CC)C(=O)N1CCC[C@H]1C(=O)NCCCN)C(=O)N1CCC[C@H]1C(=O)NCCCN", 29000),
]

----------
The reader will find reported Off-rates (koff) values listed item by item below.
Test system: (CAG)10 RNA (SEQ ID NO: 5)
protocol-text: SPR binding to immobilized biotinylated RNA
assay-context: SPR

# compound-smiles, assayed-target, Off-rates (koff)
records = [
    ("NCCCC[C@H](NC(=O)[C@H](C/C=C\\C[C@H](NC(=O)[C@@H]1CCCN1)C(=O)N[C@@H](CCCCN)C(=O)NCCCN)NC(=O)[C@@H]1CCCN1)C(=O)NCCCN", "(CAG)10 RNA (SEQ ID NO: 5)", "0.0192 s⁻¹"),
    ("CCc1nc2cc3ccccc3cc2cc1C(=O)N1CCC[C@H]1C(=O)N[C@@H](C/C=C\\C[C@H](NC(=O)[C@@H]1CCCN1C(=O)c1cc2cc3ccccc3cc2nc1CC)C(=O)N[C@@H](CCCCN)C(=O)NCCCN)C(=O)N[C@@H](CCCCN)C(=O)NCCCN", "(CAG)10 RNA (SEQ ID NO: 5)", "0.00289 s⁻¹"),
    ("CCc1nc2cc3ccccc3cc2cc1C(=O)N[C@@H](CCCCN)C(=O)N[C@@H](C/C=C\\C[C@H](NC(=O)[C@H](CCCCN)NC(=O)c1cc2cc3ccccc3cc2nc1CC)C(=O)N1CCC[C@H]1C(=O)NCCCN)C(=O)N1CCC[C@H]1C(=O)NCCCN", "(CAG)10 RNA (SEQ ID NO: 5)", "0.00593 s⁻¹"),
]

----------
Tested on: (CCUG)10 RNA (SEQ ID NO: 4)
protocol-text: SPR binding to immobilized biotinylated RNA
assay-context: SPR, (CCUG)10
The reader will find reported Off-rates (koff) values listed item by item below.
measured-metric: Off-rates (koff) (s⁻¹)

# compound-smiles, reported-result
rows = [
    ("NCCCC[C@H](NC(=O)[C@H](C/C=C\\C[C@H](NC(=O)[C@@H]1CCCN1)C(=O)N[C@@H](CCCCN)C(=O)NCCCN)NC(=O)[C@@H]1CCCN1)C(=O)NCCCN", 0.299),
    ("CCc1nc2cc3ccccc3cc2cc1C(=O)N1CCC[C@H]1C(=O)N[C@@H](C/C=C\\C[C@H](NC(=O)[C@@H]1CCCN1C(=O)c1cc2cc3ccccc3cc2nc1CC)C(=O)N[C@@H](CCCCN)C(=O)NCCCN)C(=O)N[C@@H](CCCCN)C(=O)NCCCN", 0.00184),
    ("CCc1nc2cc3ccccc3cc2cc1C(=O)N1CCC[C@H]1C(=O)N[C@@H](C/C=C/C[C@H](NC(=O)[C@@H]1CCCN1C(=O)c1cc2cc3ccccc3cc2nc1CC)C(=O)N[C@@H](CCCCN)C(=O)NCCCN)C(=O)N[C@@H](CCCCN)C(=O)NCCCN", 0.000987),
]
